- Study system: T1, extracellular domain of rhesus monkey BCMA (rhesus monkey, UniProt F7FFA0 1-53)
- T1 construct: extracellular domain; also called RhBCMA
- T1 sequence (F7FFA0 entry or part of it): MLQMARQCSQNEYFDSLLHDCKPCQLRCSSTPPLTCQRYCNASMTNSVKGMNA
- Test details: Octet BLI; Fab 200 nM
Outcome measure: Kd (nM)
Note: unit nM is implicit; provide only the numeric part.

See these solved cases before continuing.
AB200-(2Vk30)_R2-VH-v39 (Fab, V domains shown) VH: QVQLVQSGAEVKKPGSSVKVSCKASGGTFTNYWIHWVRQAPGQGLEWMGATYRIHSDTYYAEKFKSRVTITADKSTSTAYMELSSLRSEDTAVYYCARGAIFHGYDVIDNWGQGTLVTVSS VL: DIQMTQSPSSLSASVGDRVTITCRASQSISSYLNWYQQKPGKAPKLLIYATSNLQIGVPSRFSGSGSGTDFTLTISSLQPEDFATYYCQQYRRIPWTFGQGTKLEIKR
15.4
AB200-(2Vk30)_R2-VH-v37 (Fab, V domains shown, also called AB200_VH2-37_VK2-30) VH: QVQLVQSGAEVKKPGSSVKVSCKASGGTFSNYWIHWVRQAPGQGLEWMGATYRSQSDTYYNQKYKSRVTITADKSTSTAYMELSSLRSEDTAVYYCARGAVYHGYDVIDNWGQGTLVTVSS VL: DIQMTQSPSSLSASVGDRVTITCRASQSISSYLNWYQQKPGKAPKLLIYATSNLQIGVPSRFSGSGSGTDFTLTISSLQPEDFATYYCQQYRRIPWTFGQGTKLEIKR
6.05

Shift focus to the following entry.
Please fill in: Kd reported for AB200-(2Vk30)_R2-VH-v31 (Fab, V domains shown) VH: QVQLVQSGAEVKKPGSSVKVSCKASGGTFSNYWIHWVRQAPGQGLEWMGATYRSQSDTNYNQKFKSRVTITADKSTSTAYMELSSLRSEDTAVYYCARGAVYHGYDVIDNWGQGTLVTVSS VL: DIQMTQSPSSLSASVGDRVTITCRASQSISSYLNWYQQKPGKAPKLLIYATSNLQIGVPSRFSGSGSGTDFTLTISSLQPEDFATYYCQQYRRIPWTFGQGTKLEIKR = 38.4
